- System: MS2 coat protein
- Protocol Details: apparent KD of MS2 coat protein, switch ON state; designed switch direction (-1 OFF switch, 1 ON switch): 1; higher = weaker reporter binding
- Test Conditions: FMN input: 0 or 200 uM; Eterna round: R93 (includes R88 designs)
Quick reference for apparent KD of MS2 coat protein among some sequences
Assay Metric: apparent KD of MS2 coat protein

# Residues, Result
rows = [
    ("CAGAUACAUGAGGAUCACCCAUGUUAGGUAGAACAAGGAUAUCUAGAUAGAUAAAAAUAUAGAGAAGGUGUAUAAC [JR_SS001_Sub207]", "0.0198 µM"),
    ("AGGAAACAUGAGGAUCACCCAUGUAAAAUAAUGGGAGGAUAUGCGAAAAGAAAAAGAAAAGCAGAAGGCCUAAGAA [62%, Something completely different, 4]", "0.0186 µM"),
    ("CGCGAACAUGAGGAUCACCCAUGUAGCGGGAAACAAGGAUAUGGGAGGCGAAAUCGCGGAUCAGAAGGUGUAAGCG [Laaratat]", "0.0147 µM"),
    ("AAAAUAUAAACAGAGGAUAUCCAAAGAACCACAUGAGGAUCACCCAUGUAAAGAAAGAAUAAGUGGGAGAAGGUUGAAAUAAUAA [Designing denovo 26]", "0.0499 µM"),
    ("GGAAGACAUGAGGAUCACCCAUGUGGGAAUAUGGGAGGAUAUACAAAGACGAGAGUCAGAGUAGAAGGCCUAGGAU [salish99-ss1-100]", "0.044 µM"),
    ("GGGAGGAAGAGAGAGGAUAUCCAAAGGAAAACAUGAGGAUCACCCAUGUAAAAGGUAGGAAAUUGGGAGAAGGCUCAAGAGAUGG [salish99-ss2-052]", "0.059 µM"),
    ("AAGAAACAUGAGGAUCACCCAUGUAAAAAUAUGGGAGGAUAUGCGAAAAGAAACAAAGAAGCAGAAGGCCUAAGAA [75%, Ex5 sub 1, 6]", "0.0159 µM"),
    ("AAAAAACAUGAGGAUCACCCAUGUAAAAAAAUGGGAGGAUAUACAAAAACAAAAAAAAAAGUAGAAGGCCUGAAAA [same state 9]", "0.0413 µM"),
    ("AAACAAACAACGCAGGAUAUGCAAAAACCCACAUGAGGAUCACCCAUGUCCCAACAACAAACAAAGCAGAAGGGCGAACAAACAAA [High Roller1]", "0.0373 µM"),
    ("AAAAGACAUGAGGAUCACCCAUGUAGGCCAAAGCAAGGAUAUAGGCCACAGGGACGUGAACUAGAAGGUGCACGGC [Zainlebe]", "0.0308 µM"),
    ("AGGAAACAUGAGGAUCACCCAUGUAAAUAUGGGCGAGGAUAUCGAAAGAAAAGAAAGAAACGAGAAGGCGCAAAAG [GU on the end]", "0.0492 µM"),
    ("AAAAAACAUGAGGAUCACCCAUGUCGAAAGACGUGAGGAUAUGUACAGACUUCGGUCUGUACAGAAGGCAUGAAAA [SS1 - 1057]", "0.0795 µM"),
    ("AAAACCUGCGUCGAGGAUAUGUAGCCCACUACAUGAGGAUCACCCAUGUGGAUCUUACUGGGUCGACAGAAGGUGAAAGUAAGGC [Ustionon]", "0.0493 µM"),
    ("AUAAAUAAAGAUCAGGAUAUUAUAAAGAUAACAUGAGGAUCACCCAUGUAAAACAAAAUUAUGGGUAAGAAGGGAUCAAAUAAAU [SS2 M 20]", "0.0469 µM"),
    ("AAAAAACAUGAGGAUCACCCAUGUCCUCGGACGUGAGGAUAUGUACAGACUUCGGUCUGUACAGAAGGCAUGUAAA [SS1 - 1051]", "0.555 µM"),
    ("AAGAAACAUGAGGAUCACCCAUGUAAGAUAAACACAGGAUAUGCGAAAUAAAUAAAUAAAGCAGAAGGGUGAAGAA [Mat - Same State 1 - Tesla mod - D149]", "0.00688 µM"),
    ("AGAAAUAAAAGCUAGGAUAUCCAAAAGAAAACAUGAGGAUCACCCAUGUAAAAGAAAAUAAAGUGGGAGAAGGAGCAAAAUAAGA [Starry modified]", "0.018 µM"),
    ("AUACAAACGUAUGAGGAUAUCCUUAAUAAAACAUGAGGAUCACCCAUGUGAAUAAAAUAACAAUUGGAGAAGGCAUACGUACAAU [Mat - Same state - Malcolm Mod - D137]", "0.0166 µM"),
    ("GAAAAACAUGAGGAUCACCCAUGUGUAAAUAUGGAAGGAUAUACGAAGACGUAAGUCAAAGUAGAAGGUCUAAAAG [Garnet 99]", "0.0193 µM"),
    ("GAAGACAUAGUUCAGGAUAUAGGAAUAGUCACAUGAGGAUCACCCAUGUGCAUUUAUAUGCGCACUUAGAAGGGAGGUAGUUAAU [Mat - Same state - Malcolm Mod - D120]", "0.0284 µM"),
    ("CGGAAGGAGAGAGAGGAUAUCCAAAGGAAAACAUGAGGAUCACCCAUGUAGAAGGUAGGAAAUUGGGAGAAGGCUCAAGAGAGUG [salish99-ss2-121]", "0.0302 µM"),
    ("AGAAAUAAAAGAGAGGAUAUCCAAAAUAAAACAUGAGGAUCACCCAUGUCUACGAAAGUAGGAUGGGAGAAGGCUCAAAAUAAAG [80% More Helter Skelter 2 + Hairpin]", "0.12 µM"),
    ("AAGAAACAUGAGGAUCACCCAUGUAGAAAUAUGGGAGGAUAUACGAGGACGAAAGUCAAAGUAGAAGGCCUAAGAA [Mat - Same State 1 - Meechl mod - D130]", "0.0196 µM"),
    ("AAAAAACAUGAGGAUCACCCAUGUAAAAAAAUCACAGGAUAUAAGGUCGCGAAAGCGACCUUAGAAGGGUGAUCAA", "0.0588 µM"),
]
